tgt: binding of TSP-1 protein to CD36, a TSP-1 receptor protein (Homo sapiens)
Construct: purchased novoprotein (TSP-1); R&D Systems (Fc-tagged CD36) CU45 (TSP-1); 1955-CD-050 (CD36-Fc)
procedure_summary: ELISA: blocking of CD36 binding to TSP-1 protein
applied_conditions: concentrations 0-100 μM
observed_property: IC50 (µM)

H-YRVRFLAKENVTQDAEDN-OH [SEQ ID NO: 50, reference compound]	10.6
Ac-TQDAEDNTAS-NH2 [SEQ ID NO: 24]	10.6

* * *

The reader will find reported MCF7 migration Mean (%) values listed item by item below.
Test system: human breast cancer MCF7 cells
procedure_summary: Transwell tumor cell migration, co-culture with PMA-differentiated THP-1 cells
Assay type: cell-based
applied_conditions: 100 μM polypeptide 48 h, co-culture 48 h; negative control group = 100.00
Procedure: This Example was to assess the effects of polypeptides on the migration abilities of different tumor cells. The experiment was performed using transwell nested chambers (membrane pore size of 8 μm), where THP-1 cells were inoculated in the lower chamber and treated with 300 nM PMA (Sigma, Catalog No.P1585) for differentiation and chamber-wall adherence, and then treated with 100 μM polypeptide (in the negative control, an equal volume of solvent was added) for 48 hours. […]
Kindly provide the numeric value in % only, without the unit symbol.

Ac-TQDPEDNTAS-NH2 [SEQ ID NO: 26]	63.23
Ac-TQDAEDPTA-NH2 [SEQ ID NO: 22]	48.64
Ac-TQDAEDN-NH2 [SEQ ID NO: 06, Ac-Thr-Gln-Asp-Ala-Glu-Asp-Asn-NH2]	51.95
Ac-Thr-Gln-Asp-Ala-Glu-Asp-NH2 (Ac-TQDAED-NH2) [SEQ ID NO: 04]	62.78
Ac-TQDAEDNTASH-NH2 [SEQ ID NO: 33]	47.13
Ac-Gln-Asp-Ala-Glu-Asp-Asn-NH2 (Ac-QDAEDN-NH2) [SEQ ID NO: 05]	42.55

Below: the item to evaluate.
MCF7 migration Mean (%) measured on Ac-TQDAEDPTAS-NH2 [SEQ ID NO: 25] = 61.75

* * *

System: P-Smad2/3
procedure_summary: P-Smad2/3 content in lung tissue, BLM mouse fibrosis model
Type: in vivo
applied_conditions: single intratracheal dose 3 mg/kg on Day 7, lung 24 h later; BLM model group = 100.00
observed_property: P-Smad2/3 content in lung tissue, ratio to model group, Mean(%)
Kindly provide the numeric value in % only, without the unit symbol.

P-Smad2/3 content in lung tissue, ratio to model group, Mean(%) measured on Ac-Thr-Asn-Asp-Ala-Glu-Asp-Asn-NH2 (Ac-TNDAEDN-NH2) [SEQ ID NO: 08] = 83.02

P-Smad2/3 content in lung tissue, ratio to model group, Mean(%) measured on Ac-Thr-Glu-Asp-Ala-Glu-Asp-Asn-NH2 (Ac-TEDAEDN-NH2) [SEQ ID NO: 09] = 89.41

P-Smad2/3 content in lung tissue, ratio to model group, Mean(%) measured on Ac-TQDAEDPTAS-NH2 [SEQ ID NO: 25] = 65.07

P-Smad2/3 content in lung tissue, ratio to model group, Mean(%) measured on Ac-TQDAEDNTASH-NH2 [SEQ ID NO: 33] = 71.09

P-Smad2/3 content in lung tissue, ratio to model group, Mean(%) measured on Ac-Thr-Gln-Asp-Ala-Glu-Asp-Asn-Thr-Ala-Ser-Phe-NH2 (Ac-TQDAEDNTASF-NH2) [SEQ ID NO: 31] = 90.02

P-Smad2/3 content in lung tissue, ratio to model group, Mean(%) measured on Ac-TQDAEDN-NH2 [SEQ ID NO: 06, Ac-Thr-Gln-Asp-Ala-Glu-Asp-Asn-NH2] = 54.89

P-Smad2/3 content in lung tissue, ratio to model group, Mean(%) measured on Ac-Thr-Gln-Asp-Pro-Ala-Glu-Asp-NH2 (Ac-TQDPAED-NH2) [SEQ ID NO: 47] = 93.25

P-Smad2/3 content in lung tissue, ratio to model group, Mean(%) measured on Ac-Thr-Gln-Asp-Ala-Glu-Asp-NH2 (Ac-TQDAED-NH2) [SEQ ID NO: 04] = 67.91

P-Smad2/3 content in lung tissue, ratio to model group, Mean(%) measured on Ac-TQDPEDNTAS-NH2 [SEQ ID NO: 26] = 76.78

* * *

The reader will find reported active TGF-β content in lung tissue, ratio to model group, Mean(%) values listed item by item below.
Tested on: active TGF-β
procedure_summary: Active TGF-β level in lung tissue, bleomycin (BLM) mouse lung fibrosis model
Type: in vivo
applied_conditions: single intratracheal dose 3 mg/kg on Day 7, lung 24 h later; BLM model group = 100.00
Kindly provide the numeric value in % only, without the unit symbol.

Examples with their reported active TGF-β content in lung tissue, ratio to model group, Mean(%) follow.
Ac-TQDAEDNTQD-NH2 [SEQ ID NO: 49]	82.64
Ac-TQDAEDNTASH-NH2 [SEQ ID NO: 33]	86.61

active TGF-β content in lung tissue, ratio to model group, Mean(%) measured on Ac-TQDAEDNTVSFLQ-NH2 [SEQ ID NO: 36] = 77.42

active TGF-β content in lung tissue, ratio to model group, Mean(%) measured on Ac-Thr-Gln-Asp-Ala-Glu-Asp-Asn-Thr-Val-Ser-Phe-NH2 (Ac-TQDAEDNTVSF-NH2) [SEQ ID NO: 27] = 89.89

* * *

tgt: binding of TSP-1 protein to CD36, a TSP-1 receptor protein (Homo sapiens)
Construct: purchased novoprotein (TSP-1); R&D Systems (Fc-tagged CD36) CU45 (TSP-1); 1955-CD-050 (CD36-Fc)
procedure_summary: ELISA: blocking of CD36 binding to TSP-1 protein
applied_conditions: 100 μM polypeptide, 0.25 μg/mL Fc-tagged CD36; blocking of CD36 binding to TSP-1
Procedure: ELISA assay was performed to detect the ability of the polypeptides to block the binding of TSP-1 protein to CD36, a TSP-1 receptor protein. […]
observed_property: Blocking rate (Mean, %)

Examples with their reported Blocking rate (Mean, %) follow.
Ac-Thr-Asn-Asp-Ala-Glu-Asp-Asn-NH2 (Ac-TNDAEDN-NH2) [SEQ ID NO: 08]	16.70
Ac-Ser-Gln-Asp-Ala-Glu-Asp-Asn-Thr-Val-Ser-Phe-NH2 (Ac-SQDAEDNTVSF-NH2) [SEQ ID NO: 28]	21.71
cyclo[Thr-Gln-Asp-Pro-Glu-Asp-Asn] (TQDPEDN; cyclic peptide; MISC_FEATURE - head-to-tail backbone cyclization) [SEQ ID NO: 41]	28.65
Ac-Thr-Gln-Asp-Ala-Glu-Asp-Asn-Thr-Val-NH2 (Ac-TQDAEDNTV-NH2) [SEQ ID NO: 17]	29.16
Ac-Thr-Gln-Asp-Ala-Glu-Asp-Asn-Thr-Ala-Ser-Phe-NH2 (Ac-TQDAEDNTASF-NH2) [SEQ ID NO: 31]	18.44

(P) Ac-Gln-Asp-Pro-Glu-Asp-NH2 (Ac-QDPED-NH2) [SEQ ID NO: 01]
(Q) Ac-Thr-Gln-Asp-Ala-Glu-Asp-Asn-Thr-Val-Ser-Phe-NH2 (Ac-TQDAEDNTVSF-NH2) [SEQ ID NO: 27]
Query string: Please indicate which item has the smaller measured Blocking rate (Mean, %): P versus Q Refer to your chosen item by its label in the answer.
Result string: P
(P: 17.84%, Q: 25.53%)

* * *

tgt: binding of TSP-1 protein to CD36, a TSP-1 receptor protein (Homo sapiens)
Construct: purchased novoprotein (TSP-1); R&D Systems (Fc-tagged CD36) CU45 (TSP-1); 1955-CD-050 (CD36-Fc)
procedure_summary: ELISA: blocking of CD36 binding to TSP-1 protein
applied_conditions: 3 h, 100 μM polypeptide, 0.25 μg/mL Fc-tagged CD36; blocking of CD36 binding to TSP-1; read-out: Blocking rate (Mean, %)
observed_property: inhibition at 100 µM (%)

(A) Ac-TQDPEDNTAS-NH2 [SEQ ID NO: 26]
(B) Ac-TQDPAEDN-NH2 [SEQ ID NO: 48, Ac-Thr-Gln-Asp-Pro-Ala-Glu-Asp-Asn-NH2]
Query string: Please indicate which item has the smaller measured inhibition at 100 µM: A versus B Refer to your chosen item by its label in the answer.
Result string: B
(B: 29.7%, A: 53.8%)

* * *

tgt: binding of TSP-1 protein to CD36, a TSP-1 receptor protein (Homo sapiens, UniProt P07996)
Construct: purchased novoprotein (TSP-1); R&D Systems (Fc-tagged CD36) CU45 (TSP-1); 1955-CD-050 (CD36-Fc)
Sequence (P07996 19-1170): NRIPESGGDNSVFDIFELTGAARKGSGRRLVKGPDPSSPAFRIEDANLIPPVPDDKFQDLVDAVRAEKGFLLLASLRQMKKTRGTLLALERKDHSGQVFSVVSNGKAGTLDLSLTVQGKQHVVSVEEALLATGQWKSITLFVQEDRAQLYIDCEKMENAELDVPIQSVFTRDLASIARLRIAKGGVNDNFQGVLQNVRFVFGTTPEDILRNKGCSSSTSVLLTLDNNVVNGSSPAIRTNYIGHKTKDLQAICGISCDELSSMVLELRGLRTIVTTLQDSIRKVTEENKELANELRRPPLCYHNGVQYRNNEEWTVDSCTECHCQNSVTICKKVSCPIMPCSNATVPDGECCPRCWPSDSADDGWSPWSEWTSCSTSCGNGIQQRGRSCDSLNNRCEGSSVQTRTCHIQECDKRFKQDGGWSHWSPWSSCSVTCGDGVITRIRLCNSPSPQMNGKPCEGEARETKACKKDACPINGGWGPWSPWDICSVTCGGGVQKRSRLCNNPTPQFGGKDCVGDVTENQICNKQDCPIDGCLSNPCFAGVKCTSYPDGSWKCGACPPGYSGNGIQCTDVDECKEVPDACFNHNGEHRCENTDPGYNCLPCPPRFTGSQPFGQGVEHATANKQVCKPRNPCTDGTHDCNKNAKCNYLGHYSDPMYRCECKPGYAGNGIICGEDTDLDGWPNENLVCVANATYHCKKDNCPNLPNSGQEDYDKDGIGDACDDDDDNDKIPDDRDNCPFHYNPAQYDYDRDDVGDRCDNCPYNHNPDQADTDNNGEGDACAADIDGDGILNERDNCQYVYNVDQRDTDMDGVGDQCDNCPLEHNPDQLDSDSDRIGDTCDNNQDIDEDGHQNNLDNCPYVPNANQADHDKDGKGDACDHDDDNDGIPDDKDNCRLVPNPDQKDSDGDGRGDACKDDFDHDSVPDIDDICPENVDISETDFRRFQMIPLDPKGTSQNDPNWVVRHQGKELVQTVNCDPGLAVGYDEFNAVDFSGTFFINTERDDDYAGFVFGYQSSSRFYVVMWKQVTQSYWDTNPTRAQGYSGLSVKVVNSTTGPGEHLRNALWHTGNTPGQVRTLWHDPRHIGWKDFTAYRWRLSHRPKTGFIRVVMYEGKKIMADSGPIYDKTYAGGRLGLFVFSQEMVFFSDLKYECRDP
procedure_summary: ELISA: blocking of CD36 binding to TSP-1 protein
applied_conditions: 100 μM polypeptide, 0.25 μg/mL Fc-tagged CD36; blocking of CD36 binding to TSP-1
Bridge positions count the residues as written; N and C are the ends. Ends that are not written are not given here.
observed_property: Blocking rate (Mean, %)

Ac-Thr-Glu-Asp-Ala-Glu-Asp-Asn-Thr-Val-Ser-Phe-NH2 (Ac-TEDAEDNTVSF-NH2) [SEQ ID NO: 29]	25.05
Ac-Thr-Gln-Asp-Ala-Glu-Asp-Asn-Thr-Ala-Ser-Tyr-NH2 (Ac-TQDAEDNTASY-NH2) [SEQ ID NO: 32]	21.45
Ac-Thr-Gln-Asp-Ser-Glu-Asp-Asn-Thr-Val-NH2 (Ac-TQDSEDNTV-NH2) [SEQ ID NO: 21]	15.63
Ac-Thr-Asn-Asp-Ala-Glu-Asp-Asn-Thr-Val-NH2 (Ac-TNDAEDNTV-NH2) [SEQ ID NO: 19]	16.86
Ac-Thr-Gln-Asp-Ala-Glu-Asp-Pro-NH2 (Ac-TQDAEDP-NH2) [SEQ ID NO: 13]	16.56
Ac-Thr-Gln-Asp-Pro-Glu-Asp-Asn-Thr-Val-Ser-Phe-Leu-Gln-NH2 (Ac-TQDPEDNTVSFLQ-NH2) [SEQ ID NO: 39]	22.29
Ac-Gln-Asp-Ala-Glu-Asp-NH2 (Ac-QDAED-NH2) [SEQ ID NO: 02]	16.39
Ac-Thr-Gln-Asp-Pro-Glu-Asp-Asn-Thr-Val-Ser-Phe-NH2 (Ac-TQDPEDNTVSF-NH2) [SEQ ID NO: 30]	22.45
Thr-Gln-cyclo[Asp-Ala-Glu-Asp-Asn-Lys] (TQDAEDNK; lactam 3-8) [SEQ ID NO: 42]	25.68
Ac-Ser-Gln-Asp-Ala-Glu-Asp-Asn-NH2 (Ac-SQDAEDN-NH2) [SEQ ID NO: 07]	16.42
Ac-Thr-Gln-Asp-Ser-Glu-Asp-Asn-NH2 (Ac-TQDSEDN-NH2) [SEQ ID NO: 11]	15.19
Ac-Thr-Gln-Asp-Ala-Glu-Asp-NH2 (Ac-TQDAED-NH2) [SEQ ID NO: 04]	16.89
Ac-Thr-Ser-Asp-Ala-Glu-Asp-Asn-NH2 (Ac-TSDAEDN-NH2) [SEQ ID NO: 10]	14.54
Ac-Ser-Gln-Asp-Ala-Glu-Asp-Asn-Thr-Val-NH2 (Ac-SQDAEDNTV-NH2) [SEQ ID NO: 18]	18.79
Ac-Thr-Gln-Asp-Ala-Glu-Asp-Asn-Thr-Ala-Ser-His-Leu-NH2 (Ac-TQDAEDNTASHL-NH2) [SEQ ID NO: 35]	21.58
Ac-Thr-Gln-Asp-Pro-Ala-Glu-Asp-NH2 (Ac-TQDPAED-NH2) [SEQ ID NO: 47]	19.10
Ac-Thr-Ser-Asp-Ala-Glu-Asp-Asn-Thr-Val-Ser-Phe-Leu-Gln-NH2 (Ac-TSDAEDNTVSFLQ-NH2) [SEQ ID NO: 38]	20.22
